- System: TLR4
- experiment.description: Inhibition of TLR4 signaling in thioglycollate-elicited mouse macrophages (effective concentration, overall inhibitory activity)
- Format: cell-based
- cond: TLR4 pathway; thioglycollate-elicited mouse macrophages
No end group written: not given here.
test.readout: Effective conc. (µM)
Express the result in µM but write the number alone.

Observe how each entry below is paired with its result.
RQIKIWFQNRRMKWKKSDRDVLPGTCVWS [Peptide M4] : 20
RQIKIWFQNRRMKWKKCEEFQVPGRGELH [TF4] : 20

Fill in: Effective conc. of RQIKIWFQNRRMKWKKIVFAEMPCG [TM4-ΔC] is ___
10

====

- Tested on: TLR4
- experiment.description: LPS-induced MAPK (ERK, JNK, p38) activation in mouse macrophages (Western analysis)
- Type: cell-based
- cond: 20 μM peptide; 30 min LPS 10 ng/ml
No end group written: not given here.
test.readout: LPS-induced JNK activation

RQIKIWFQNRRMKWKKGGFYQVKEAVIHY [TR11] : inhibited
RQIKIWFQNRRMKWKKAAYPPELRFMYYVD [TR9] : inhibited

====

- System: TLR4
- experiment.description: Inhibition of TLR4 signaling in thioglycollate-elicited mouse macrophages (effective concentration, overall inhibitory activity)
- Assay type: cell-based
- cond: TLR4 pathway; thioglycollate-elicited mouse macrophages
No end group written: not given here.
We begin with a simple list: items and their reported Effective conc..
Express the result in µM but write the number alone.

Observe how each entry below is paired with its result.
RQIKIWFQNRRMKWKKEQTDYRLKLC [Peptide M3] : 20
RQIKIWFQNRRMKWKKAGCKKYSRGESIYD [Peptide 4R1] : 20

Fill in: Effective conc. of RQIKIWFQNRRMKWKKGGFYQVKEAVIHY [TR11] is ___
20

// repeat for RQIKIWFQNRRMKWKKLRQQVELYRLLSR [Peptide 4R9] and report
20

// repeat for RQIKIWFQNRRMKWKKHIFWRRLKNALLD [4R11/4αE] and report
20

// repeat for RQIKIWFQNRRMKWKKEEGVPRFHLC [Peptide 4R3] and report
20

// repeat for RQIKIWFQNRRMKWKKAAYPPELRFMYYVD [TR9] and report
20

Measured values drawn from patent US20130203649A1 for this set.
